The origin of these recorded values is paper PMC9881219.

# MEASURED_TARGET: the molecule itself
# ASSAY_OVERVIEW: SEC; MBP-DFCP1 (112-415) constructs on HiLoad 26/600 Superdex 200 pg; 25 mM Tris pH 8.0, 150 mM NaCl, 1 mM MgCl2, 1 mM DTT; monomer and dimer peaks
PROPERTY_LABEL: binding result

MBP-DFCP1 (112-415), WT NTPase domain of mouse DFCP1 (domain or fragment, UniProt Q810J8 112-415, looked up, Mouse DFCP1, UniProt Q810J8, residues 112-415 (NTPase domain, 98.8% identical to human DFCP1), in pMal-c2e; MBP was removed with TEV protease only after the SEC step, for the nucleotide hydrolysis assays; also called WT (112-415); DFCP1 NTPase domain; source: E. coli Rosetta (DE3), purified (amylose resin, Superdex 200 SEC); not shown: MBP, N-terminal, kept) NKRRHPITVYLVSKVQESLEGEEMDEETKRKKMTERVVSFLLVDENEEIQVTNEEDFIRKLDCKPDQHLKVVSIFGNTGDGKSHTLNHTFFYGREVFKTSPAQESCTVGVWAAYDPVHKVAVIDTEGLLGATVNLSQRTRLLLKVLAISDLVIYRTHADRLHNDLFKFLGDASEAYLKHFTKELKATTARCGLDVPLSTLGPAVIIFHETVHTQLLGSDHPSEAPEKLIQDRFRKLGRFPEAFSSIHYKGTRTYNPPTDFSGLRRALEQLLENNTTRSPRHPGVIFKALKALSDRFSGEIPDDQ ... binds
